Assay: Solubility of the compound in FedSIF
Assay type: physicochemical
Conditions: FeSSIF
test.readout: solubility

stdin: Which solubility reading was recorded for the compound C[C@H](NC(=O)[C@H]1CCCCN1CCOc1ccccc1)c1ccc(C(=O)O)cc1.Cl ?
stdout: > 2000 µg/mL

---

// reported IC50 for each item listed
Target: Prostaglandin E2 receptor EP4 subtype (Homo sapiens, UniProt P35408)
Sequence (P35408 whole entry): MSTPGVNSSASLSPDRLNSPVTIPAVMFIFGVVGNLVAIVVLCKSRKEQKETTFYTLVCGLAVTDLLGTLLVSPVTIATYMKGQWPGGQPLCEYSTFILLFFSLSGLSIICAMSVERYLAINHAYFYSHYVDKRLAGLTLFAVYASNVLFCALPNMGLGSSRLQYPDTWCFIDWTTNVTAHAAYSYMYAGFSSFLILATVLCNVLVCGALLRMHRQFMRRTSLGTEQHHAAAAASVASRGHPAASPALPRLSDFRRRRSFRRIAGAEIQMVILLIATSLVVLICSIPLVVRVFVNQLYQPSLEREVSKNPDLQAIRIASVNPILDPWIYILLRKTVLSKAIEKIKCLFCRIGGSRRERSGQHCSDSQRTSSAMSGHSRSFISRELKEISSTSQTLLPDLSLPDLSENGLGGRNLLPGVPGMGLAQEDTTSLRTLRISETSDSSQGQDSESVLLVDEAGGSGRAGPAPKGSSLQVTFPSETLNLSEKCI
Assay: Displacement of [3H]-PGE2 from recombinant human EP4 receptor expressed in HEK293 cell membranes after 90 mins by liquid scintillation counting analysis
The reply should consist of the numeric value with the unit placed after it.

Look over these answered cases.
given.smiles	result
O=C(O)c1ccc(C2(NC(=O)[C@H]3CCCCN3CCOc3ccccc3)CC2)cc1	77.8 nM
C[C@H](NC(=O)[C@H]1CCCCN1CCOc1ccc(C#N)cc1)c1ccc(C(=O)O)cc1	621 nM
C[C@H](NC(=O)[C@H]1CCCCN1CCOc1ccc(F)cc1)c1ccc(C(=O)O)cc1	71.8 nM
CCc1nc2c(C)nc(C)cc2n1-c1ccc(CCNC(=O)NS(=O)(=O)c2ccc(C)cc2)cc1	689 nM
CC[C@H](NC(=O)[C@H]1CCCCN1CCOc1ccccc1)c1ccc(C(=O)O)cc1	232 nM

Read the next record carefully.
stdin: What does the record list as IC50 for O=C(O)c1ccc(CNC(=O)[C@H]2CCCCN2CCOc2ccccc2)cc1 ?
stdout: 203 nM
